Test system: Candida albicans
Settings: 20 µM
Description: Antifungal activity against Candida albicans ATCC 90028 (CO-ADD:FG_001); MIC in YNB media using NBS plates, by OD630
Entries with a potency or affinity are not part of this list.
Label condition met when Inhibition is at or above 4%; anything below gets condition not met.

- C[C@]12CC[C@H](O)CC1=CC[C@@H]1[C@@H]2CC[C@@]2(C)[C@H]1CC[C@]2(C)O [METHANDRIOL]: condition met
- O=C(O[C@@H]1Cc2c(O)cc(O)cc2O[C@@H]1c1cc(O)c(O)c(O)c1)c1cc(O)c(O)c(O)c1 [EPIGALOCATECHIN GALLATE]: condition not met
- O=C(O)CCCc1ccc(N(CCCl)CCCl)cc1 [CHLORAMBUCIL]: condition not met
- CC(=O)[C@H]1CC[C@H]2[C@@H]3CCC4=CC(=O)CC[C@]4(C)[C@H]3CC[C@]12C [PROGESTERONE]: condition met
- Cl.Oc1ccc2c3c1OC1C(O)CC[C@@]4(O)[C@@H](C2)N(CC2CCC2)CC[C@]314 (stereo partly drawn): condition not met
- Cc1ccc(-c2nc3ccc(C)cn3c2CC(=O)N(C)C)cc1.Cc1ccc(-c2nc3ccc(C)cn3c2CC(=O)N(C)C)cc1.O=C(O)C(O)C(O)C(=O)O [ZOLPIDEM TARTRATE]: condition met
- Fc1ccc([C@@H]2CCNC[C@H]2COc2ccc3c(c2)OCO3)cc1.O=C(O)/C=C\C(=O)O: condition not met
